Entry source: patent US20260232763A1

experiment: clinical
experimentalParameters: male, human, in vivo, 400 mg, AUC(0-last), adj geo mean
assayEndpoint: AUC(0-t)
Put down the number, then write its unit next to it.

Briefly, AUC(0-t) measured for Cc1nnc(C(=O)NC(C)(C)c2nc(C(=O)NCc3ccc(F)cc3)c(O)c(=O)n2C)o1 [raltegravir, reference compound] : 1570 ng·h/mL

====

experiment: Example 3 Part 2 (Regimen B) dabigatran etexilate + belumosudil plasma PK
Assay type: in vivo, human
experimentalParameters: male, human, plasma, oral, Regimen B, dabigatran etexilate 75 mg single dose + belumosudil 200 mg QD (Day 9); read-out: AUC(0-inf), adj geo mean
assayEndpoint: AUC(0-inf)
Put down the number, then write its unit next to it.

Briefly, AUC(0-inf) measured for [H]/N=C(/N)c1ccc(NCc2nc3cc(C(=O)N(CCC(=O)O)c4ccccn4)ccc3n2C)cc1 [unconjugated dabigatran, dabigatran, reference compound] : 822 ng·h/mL
